- tgt: UniProtKB Q8VNN2
- Sequence (Q8VNN2 whole entry): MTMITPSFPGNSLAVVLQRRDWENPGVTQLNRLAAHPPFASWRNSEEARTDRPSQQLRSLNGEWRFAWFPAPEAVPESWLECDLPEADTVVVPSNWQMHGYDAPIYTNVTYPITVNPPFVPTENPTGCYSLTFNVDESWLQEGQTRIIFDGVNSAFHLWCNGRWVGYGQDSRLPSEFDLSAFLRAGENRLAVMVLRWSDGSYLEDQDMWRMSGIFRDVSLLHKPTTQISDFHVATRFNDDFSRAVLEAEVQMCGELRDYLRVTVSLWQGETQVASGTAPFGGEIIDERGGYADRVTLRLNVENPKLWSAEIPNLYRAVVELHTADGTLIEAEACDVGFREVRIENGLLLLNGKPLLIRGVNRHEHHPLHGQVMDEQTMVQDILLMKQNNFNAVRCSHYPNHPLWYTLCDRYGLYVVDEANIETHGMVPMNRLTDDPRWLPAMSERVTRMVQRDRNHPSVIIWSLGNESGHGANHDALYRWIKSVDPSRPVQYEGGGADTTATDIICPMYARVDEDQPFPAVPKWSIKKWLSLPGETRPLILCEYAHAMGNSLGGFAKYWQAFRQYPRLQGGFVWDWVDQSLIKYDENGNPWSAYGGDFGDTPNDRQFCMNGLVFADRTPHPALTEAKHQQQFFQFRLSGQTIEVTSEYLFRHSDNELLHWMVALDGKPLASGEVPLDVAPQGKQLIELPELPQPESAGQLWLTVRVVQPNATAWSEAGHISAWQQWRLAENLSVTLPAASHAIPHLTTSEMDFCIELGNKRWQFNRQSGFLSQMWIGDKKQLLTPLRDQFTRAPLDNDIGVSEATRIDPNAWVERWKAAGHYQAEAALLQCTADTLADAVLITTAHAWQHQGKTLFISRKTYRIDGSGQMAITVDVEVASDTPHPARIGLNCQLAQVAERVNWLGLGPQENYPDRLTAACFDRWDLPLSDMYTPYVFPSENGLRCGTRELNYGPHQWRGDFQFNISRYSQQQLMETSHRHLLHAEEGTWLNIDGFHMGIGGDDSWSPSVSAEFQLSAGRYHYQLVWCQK
- method_description: Dose response counterscreen for EBI2 assay utilizing the enzyme, b-galactosidase.
- Type: functional
The source made the active and inactive calls.
Collected IC50 values appear next to each entry.

Some solved cases for reference:
1) Cc1ccc(C(=O)CNc2ccc(Cl)cc2)cc1 | 130 µM (inactive)
2) Cc1ccc2[nH]c(C(=O)N3CCN(C(c4ccccc4)c4ccccc4)CC3)cc2c1 | > 80 µM (inactive)
3) COc1ccc(-c2cc(C(=O)N3CCN(C(c4ccccc4)c4ccccc4)CC3)no2)cc1 | > 80 µM (inactive)

Continue with the next compound.
Task item: # get_value(readout='IC50', item= CCC(C)c1ccc(NC(=S)Nc2ccc(OC)cc2)cc1 (centres undefined) )
Reply: > 80 µM (inactive)

---

- method_description: P. falciparum Dd2 growth inhibitors, dose response, SYBR Green, cherry-picked samples (AID 1159567)
- Type: functional, cell-based
Active and inactive are the calls of the source.
Property: AC50; scope: individual molecules

1. N#C[C@H]1[C@H](c2ccc(C#Cc3ccccc3F)cc2)[C@H](CO)N1C(=O)c1cccnc1 | 1.58 µM (active)
2. COc1cccc(-c2ccc3c(c2)[C@@H]2[C@@H](CCN2C(=O)C2CCCCC2)[C@H](CO)N3)c1 | 4.18 µM (active)
3. C[C@@H]1CN([C@H](C)CO)C(=O)c2cccc(NC(=O)c3ccc(-c4nccs4)cc3)c2O[C@H]1CN(C)Cc1ccc2c(c1)OCO2 | 1.19 µM (active)
4. COc1cccc(C#Cc2ccc([C@@H]3[C@@H](C#N)N(C(=O)C4CCCCC4)[C@H]3CO)cc2)c1 | 0.865 µM (active)

Task item: Reported AC50 for Cc1ccccc1S(=O)(=O)N1[C@H](C#N)[C@@H](c2ccc(C#CC3CCCCC3)cc2)[C@@H]1CO : what is it?
Reply: 6.83 µM (active)

---

- tgt: Cytochrome P450 2C9 (Homo sapiens, UniProt P11712)
- Sequence (P11712 whole entry): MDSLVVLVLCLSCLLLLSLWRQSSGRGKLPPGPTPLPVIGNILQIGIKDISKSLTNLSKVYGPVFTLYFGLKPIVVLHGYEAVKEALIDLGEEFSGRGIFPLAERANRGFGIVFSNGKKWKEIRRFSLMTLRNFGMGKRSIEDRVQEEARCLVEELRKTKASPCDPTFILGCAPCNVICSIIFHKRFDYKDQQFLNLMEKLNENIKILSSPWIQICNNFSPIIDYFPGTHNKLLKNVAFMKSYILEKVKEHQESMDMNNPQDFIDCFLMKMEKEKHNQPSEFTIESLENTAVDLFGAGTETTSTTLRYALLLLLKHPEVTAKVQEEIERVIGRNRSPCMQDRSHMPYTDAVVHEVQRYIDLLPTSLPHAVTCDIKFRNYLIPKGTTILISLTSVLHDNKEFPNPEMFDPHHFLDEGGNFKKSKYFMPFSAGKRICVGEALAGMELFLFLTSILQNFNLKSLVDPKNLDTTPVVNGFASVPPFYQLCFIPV
Quick list: AC50 per entry.

1. COCCNC(=O)CSc1ncnc2sccc12 | 28.2 µM (inconclusive)

Task item: Param item = COc1cc(CNCc2cccs2)cc(Br)c1OC ; retrieve measured AC50.
Reply: 1.41 µM (inconclusive)

Task item: Could you tell me which AC50 is on file for O=c1cnc2cncnc2n1Cc1ccccc1Cl ?
Reply: 20 µM (inconclusive)

Task item: Suppose we examine the compound O=c1cnc2cnc(Oc3cccc(Cl)c3)nc2n1C[C@H]1CCCO1 ; what AC50 value has been reported?
Reply: 15.8 µM (inconclusive)

Task item: Which AC50 value belongs to O=C(O)c1ccccc1C(=O)NNc1ccc(F)cc1 ?
Reply: 0.0251 µM (inconclusive)

---

- tgt: Paired box protein Pax-8 (Homo sapiens)
- Sequence (Q06710 whole entry): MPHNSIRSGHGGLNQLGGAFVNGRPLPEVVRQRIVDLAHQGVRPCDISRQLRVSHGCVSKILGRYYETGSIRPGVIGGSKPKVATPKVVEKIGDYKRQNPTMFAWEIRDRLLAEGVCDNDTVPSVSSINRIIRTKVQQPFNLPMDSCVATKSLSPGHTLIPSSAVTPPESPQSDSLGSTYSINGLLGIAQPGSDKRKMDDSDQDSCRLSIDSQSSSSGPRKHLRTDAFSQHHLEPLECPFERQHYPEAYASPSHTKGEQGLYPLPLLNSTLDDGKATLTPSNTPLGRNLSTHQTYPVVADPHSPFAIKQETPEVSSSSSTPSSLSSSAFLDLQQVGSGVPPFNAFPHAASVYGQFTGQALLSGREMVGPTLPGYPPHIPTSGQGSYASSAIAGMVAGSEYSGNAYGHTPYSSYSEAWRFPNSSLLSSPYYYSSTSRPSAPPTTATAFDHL
- method_description: PAX8 transcriptional activity inhibition in RMG-I – RMG-I cells, luciferase, cherry-pick, dose response (AID 687027);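 note: luciferase reporter driven by Pax8 target thyroperoxidase promoter measured by SteadyGlo luminescence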
- Assay type: functional, cell-based
Activity calls are given as the source filed them.
measured_attribute: AC50

1. C[C@H]1CCCCO[C@@H](CN(C)Cc2ccc(C(F)(F)F)cc2)[C@@H](C)CN([C@@H](C)CO)C(=O)c2cc(NC(=O)Cc3ccccc3)ccc2O1 | 7940 nM (active)

Task item: Lab note: need AC50 for O=C1NC2C(O)C(O)C(O)C(O)C2c2cc3c(c(O)c21)OCO3 (stereo not drawn) on Paired box protein Pax-8 (Homo sapiens), anyone have it?
Reply: < 260 nM (active)

Task item: Param readout= AC50; system= Paired box protein Pax-8 (Homo sapiens); entry= C[C@@H]1CCCCO[C@H](CN(C)C(=O)Nc2ccc(C(F)(F)F)cc2)[C@@H](C)CN([C@@H](C)CO)C(=O)c2cc(NS(=O)(=O)c3ccccc3)ccc2O1 ; returns value.
Reply: 3240 nM (active)

Task item: Item O=C(Nc1ccc(N2CCN(C(=O)c3cccs3)CC2)cc1)c1ccc([N+](=O)[O-])o1 with Paired box protein Pax-8 (Homo sapiens) - AC50?
Reply: 1960 nM (active)

Task item: Item: COc1cccc(C#Cc2ccc([C@@H]3[C@@H](C#N)N(C(=O)C4CCCCC4)[C@H]3CO)cc2)c1 Test system: Paired box protein Pax-8 (Homo sapiens) Read-out: AC50 Value: ?
Reply: 8610 nM (active)

Task item: Test system Paired box protein Pax-8 (Homo sapiens); read-out AC50; what value for CC(=O)NC(c1ccc(Cl)cc1)c1ccc2cccnc2c1O (stereo not drawn) ?
Reply: 2090 nM (active)

Data provenance: ChEMBL document CHEMBL1201862
